EXPERIMENT DESCRIPTION: Half life in CD-1 mouse at 20 mg/kg, po administered through gavage by LC-MS/MS analysis
Type: ADME, organism-based
Set-up: dose 20 mg/kg, route oral
CONDITION DESCRIPTION: in vivo
MEASURE NAME: half-life (h)
Please reply with the bare figure in h and do not write the unit itself.

Prompt: Return value of half-life for input "CC(C)NC(=O)[C@H]1CC[C@@H](n2/c(=N/C(=O)c3ccc(F)cc3)[nH]c3ccc(CN4CCC(C(C)(C)O)CC4)cc32)CC1" , no commentary.
Completion: 1.23

* * *

EXPERIMENT DESCRIPTION: Apparent oral clearance in CD-1 mouse at 20 mg/kg, po administered through gavage by LC-MS/MS analysis
Assay type: ADME, organism-based
Design: dose 20 mg/kg, route oral
CONDITION DESCRIPTION: in vivo
MEASURE NAME: CL/F (mL/min/kg)
Please reply with the bare figure in mL/min/kg and do not write the unit itself.

Prompt: Return value of CL/F for input "CC(C)NC(=O)[C@H]1CC[C@@H](n2/c(=N/C(=O)c3ccc(F)cc3)[nH]c3ccc(CN4CCC(C(C)(C)O)CC4)cc32)CC1" , no commentary.
Completion: 437

Data origin, for the record: ChEMBL document CHEMBL3526060
